Data provenance: ChEMBL document CHEMBL3988442

- assay_remarks: microbe, parasite or virus in culture
- stated_conditions: Mycobacterium tuberculosis, 72 h, read-out: pIC50 (converted)

{"columns": ["compound", "IC50"],
 "data": [
  ["CC1(C)CCC(C(=O)N2CCCO2)c2ccccc21 (stereo unspecified)", "> 50.1 µM"],
  ["Cc1ccc(C(O)c2cccnc2)cc1 (stereo unspecified)", "> 501 µM"],
  ["O=C(CCC1CCCC1)N1CCC(c2cc3ncccc3c(O)n2)CC1", "> 50.1 µM"],
  ["Cc1cc(C(=O)NCCCN(C)CC(F)(F)F)no1", "> 501 µM"],
  ["CCCNc1nc(CS(=O)(=O)c2ccccc2)cs1", "> 50.1 µM"],
  ["O=C(CCN1CCCC(CO)(CC2CC2)C1)NCc1cccc(Cl)c1 (stereo unspecified)", "> 50.1 µM"]
]}

###

Measured IC50, listed per entry.
- assay_remarks: microbe, parasite or virus in culture
- stated_conditions: Mycobacterium tuberculosis, 96 h, read-out: pIC50 (converted)

{"columns": ["compound", "IC50"],
 "data": [
  ["CC1=C[C@@H](CN2CCCC2)[C@H](C(C)C)C[C@H]1Cc1nnc(C)o1", "> 50.1 µM"],
  ["COc1cccn(CC(=O)N(C)CCC2CCOCC2)c1=O", "> 50.1 µM"],
  ["CS(=O)(=O)NC[C@H]1Cn2c(-c3ccc(Cl)cc3)cnc2CO1", "> 50.1 µM"],
  ["CC(C)NC(=O)NCC1(N2CCOCC2)CCSC1 (stereo not given)", "> 501 µM"],
  ["Cn1ccsc1=NC(=O)c1ccc(OCC(N)=O)cc1", "> 501 µM"]
]}

###

- assay_remarks: microbe, parasite or virus in culture
- stated_conditions: Mycobacterium tuberculosis, 72 h, read-out: pIC50 (converted)
assay_metric: IC50

{"columns": ["compound", "assay_metric", "experimental_value"],
 "data": [
  ["NC(=O)CC1CCN(C(=O)Cc2ccc(Cl)cc2)CC1", "IC50", "> 501 µM"],
  ["COc1cc(C(=O)N(Cc2cccs2)C2CC2)cc2c1OCCO2", "IC50", "> 50.1 µM"],
  ["Cc1ccc(CNCc2cccc3cccnc23)c(OC2CCOC2)c1 (configuration not stated)", "IC50", "> 50.1 µM"],
  ["CC(C)c1cc(C(=O)N(C)C(C)c2ccon2)on1 (configuration not stated)", "IC50", "> 501 µM"],
  ["COC(=O)C(O)CNc1ccc(C(F)(F)F)cn1 (configuration not stated)", "IC50", "> 501 µM"],
  ["NCc1ccc(OC2CCCCC2)nc1", "IC50", "> 501 µM"],
  ["CS(=O)(=O)NC[C@H]1OC[C@@H]2CCN(CCc3ccccc3)C[C@@H]21", "IC50", "> 50.1 µM"],
  ["CNC(=O)COC(=O)Cc1ccc(Br)cc1", "IC50", "> 501 µM"],
  ["Cc1cccnc1CN1CCOC(Cc2cccc3ccccc23)C1 (configuration not stated)", "IC50", "> 50.1 µM"],
  ["Nc1nc(-c2c(F)cccc2F)co1", "IC50", "> 501 µM"],
  ["CCOC(=O)c1ccc(CN2CCOCC2)cn1", "IC50", "> 501 µM"],
  ["CN(CC(=O)Nc1ccsc1)C(=O)c1ccco1", "IC50", "> 501 µM"]
]}
